- testedTarget: PTK2 (Homo sapiens)
- Construct: purchased Invitrogen PV3832
- Sequence (Q05397 whole entry): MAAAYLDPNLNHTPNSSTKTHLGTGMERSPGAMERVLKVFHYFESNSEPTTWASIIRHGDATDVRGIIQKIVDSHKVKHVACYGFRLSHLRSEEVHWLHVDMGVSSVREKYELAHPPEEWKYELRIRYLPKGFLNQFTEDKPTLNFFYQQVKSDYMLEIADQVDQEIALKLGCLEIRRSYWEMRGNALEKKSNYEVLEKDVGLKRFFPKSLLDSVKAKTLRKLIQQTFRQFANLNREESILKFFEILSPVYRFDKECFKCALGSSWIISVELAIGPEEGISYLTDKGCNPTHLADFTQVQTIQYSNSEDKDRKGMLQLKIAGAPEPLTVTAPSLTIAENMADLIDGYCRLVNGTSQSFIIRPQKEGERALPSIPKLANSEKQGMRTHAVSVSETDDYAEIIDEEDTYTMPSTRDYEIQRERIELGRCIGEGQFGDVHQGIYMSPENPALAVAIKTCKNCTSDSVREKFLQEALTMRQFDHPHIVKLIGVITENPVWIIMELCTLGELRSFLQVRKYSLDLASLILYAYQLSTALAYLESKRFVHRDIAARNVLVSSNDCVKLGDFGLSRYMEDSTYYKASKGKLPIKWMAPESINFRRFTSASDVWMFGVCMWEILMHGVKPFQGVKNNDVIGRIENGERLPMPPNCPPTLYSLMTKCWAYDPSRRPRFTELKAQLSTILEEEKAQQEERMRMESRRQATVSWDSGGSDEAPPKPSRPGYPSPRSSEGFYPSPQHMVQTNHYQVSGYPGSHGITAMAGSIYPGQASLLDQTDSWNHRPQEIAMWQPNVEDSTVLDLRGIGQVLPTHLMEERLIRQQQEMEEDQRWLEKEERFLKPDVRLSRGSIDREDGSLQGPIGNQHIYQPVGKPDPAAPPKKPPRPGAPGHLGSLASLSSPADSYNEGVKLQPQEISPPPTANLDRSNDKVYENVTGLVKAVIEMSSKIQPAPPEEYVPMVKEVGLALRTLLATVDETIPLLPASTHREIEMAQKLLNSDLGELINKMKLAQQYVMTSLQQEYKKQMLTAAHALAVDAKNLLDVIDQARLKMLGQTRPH
- experimentalDetails: PTK2 Enzyme Test (DELFIA assay, poly-Glu-Tyr substrate)
- Type: biochemical
- measurementSetup: active PTK2 enzyme, 50 μM ATP in ATP Mix, 1 h pre-incubation
- Description: This test uses active PTK2 enzyme (Invitrogen Code PV3832) and poly-Glu-Tyr (4:1, Sigma P-0275) as the kinase substrate. The kinase activity is detected by means of the phosphorylation of the substrate in a DELFIA™ assay. The phosphorylated substrate is detected with the Europium-labelled phosphotyrosine antibody PY20 (Perkin Elmer, No.: AD0038). […] The time-delayed europium fluorescence is then measured in a microtitre plate reader (Victor, Perkin Elmer). […]
measurementLabel: IC50 (nM)

compound: COc1cc(C(=O)NC2CCN(C(C)C)CC2)ccc1Nc1ncc(C(F)(F)F)c(NCc2ccc(C)cc2N(C)S(C)(=O)=O)n1 [Example 15]
IC50 / nM: 3
--
compound: CNC(=O)c1cc(OC)c(Nc2ncc(C(F)(F)F)c(NCc3ccc(C)cc3N(C)S(C)(=O)=O)n2)cc1C [Example 54]
IC50 / nM: 3
--
compound: CCN1CCC[C@H]1CNC(=O)c1ccc(Nc2ncc(C(F)(F)F)c(NCc3ccc(C)cc3N(C)S(C)(=O)=O)n2)c(OC)c1 [Example 45]
IC50 / nM: 3
--
compound: COc1cc(C(=O)N[C@H]2CC[C@H](N3CCN(CC4CC4)CC3)CC2)ccc1Nc1ncc(C(F)(F)F)c(NCc2ccc(C)cc2N(C)S(C)(=O)=O)n1 [Example 95]
IC50 / nM: 3
--
compound: COc1cc(C(=O)N[C@@H]2CCCN(C3COC3)C2)ccc1Nc1ncc(C(F)(F)F)c(NCc2ccc(C)cc2N(C)S(C)(=O)=O)n1 [Example 116]
IC50 / nM: 3
--
compound: COc1cc(C(=O)N[C@@H]2CCCN(CC3CC3)C2)ccc1Nc1ncc(C(F)(F)F)c(NCc2ccc(C)cc2N(C)S(C)(=O)=O)n1 [Example 85]
IC50 / nM: 3
--
compound: COc1cc(C(=O)NC2CCN(CC(F)F)CC2)ccc1Nc1ncc(C(F)(F)F)c(NCc2ccc(C)cc2N(C)S(C)(=O)=O)n1 [Example 18]
IC50 / nM: 3
--
compound: COc1cc(C(=O)NC2CCC3C(CCN3C)C2)ccc1Nc1ncc(C(F)(F)F)c(NCc2ccc(C)cc2N(C)S(C)(=O)=O)n1 (centres unmarked) [Example 26]
IC50 / nM: 3
